I'd appreciate it if you could supply log10 of IC50 values for the items below.
Target: epithelial sodium channel (ENaC) (Homo sapiens, UniProt P37088+P51168+P51170)
Construct: host or cells: primary Human Bronchial Epithelial cells (HBECs), air-liquid interface culture
Sequence (P37088 whole entry): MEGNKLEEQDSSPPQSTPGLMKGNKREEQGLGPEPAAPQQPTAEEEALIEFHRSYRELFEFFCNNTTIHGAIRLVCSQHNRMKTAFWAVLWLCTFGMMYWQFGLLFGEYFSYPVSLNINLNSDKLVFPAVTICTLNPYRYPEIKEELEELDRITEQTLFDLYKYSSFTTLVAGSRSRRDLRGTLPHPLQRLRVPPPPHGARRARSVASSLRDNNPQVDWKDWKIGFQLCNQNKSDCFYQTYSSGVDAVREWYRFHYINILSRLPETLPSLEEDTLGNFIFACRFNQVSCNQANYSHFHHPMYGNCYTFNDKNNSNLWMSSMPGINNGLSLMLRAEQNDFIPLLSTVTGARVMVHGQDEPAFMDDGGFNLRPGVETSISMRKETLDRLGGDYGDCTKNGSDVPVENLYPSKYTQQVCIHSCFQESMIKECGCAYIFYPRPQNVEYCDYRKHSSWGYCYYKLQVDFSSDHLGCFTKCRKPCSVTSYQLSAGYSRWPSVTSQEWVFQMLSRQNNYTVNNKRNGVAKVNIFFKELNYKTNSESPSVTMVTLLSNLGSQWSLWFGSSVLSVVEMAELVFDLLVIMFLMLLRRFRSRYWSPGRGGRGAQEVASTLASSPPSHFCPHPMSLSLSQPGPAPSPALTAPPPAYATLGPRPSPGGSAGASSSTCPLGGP
Sequence (P51168 whole entry): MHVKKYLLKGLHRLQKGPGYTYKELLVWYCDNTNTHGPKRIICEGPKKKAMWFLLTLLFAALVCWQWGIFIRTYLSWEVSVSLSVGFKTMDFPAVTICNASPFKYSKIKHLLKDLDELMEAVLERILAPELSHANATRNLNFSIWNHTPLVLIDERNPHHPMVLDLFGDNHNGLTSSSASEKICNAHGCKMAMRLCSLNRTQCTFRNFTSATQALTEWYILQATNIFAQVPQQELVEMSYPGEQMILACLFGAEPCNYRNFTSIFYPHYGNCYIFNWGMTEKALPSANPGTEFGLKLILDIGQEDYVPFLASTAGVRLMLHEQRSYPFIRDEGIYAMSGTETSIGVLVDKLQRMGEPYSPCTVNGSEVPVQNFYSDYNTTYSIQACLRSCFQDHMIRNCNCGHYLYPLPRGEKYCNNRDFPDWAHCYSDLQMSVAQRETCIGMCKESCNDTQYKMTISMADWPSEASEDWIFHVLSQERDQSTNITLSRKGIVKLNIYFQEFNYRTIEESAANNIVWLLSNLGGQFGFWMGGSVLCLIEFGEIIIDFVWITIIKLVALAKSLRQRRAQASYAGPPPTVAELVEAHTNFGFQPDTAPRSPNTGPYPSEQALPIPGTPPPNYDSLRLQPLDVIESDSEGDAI
Sequence (P51170 whole entry): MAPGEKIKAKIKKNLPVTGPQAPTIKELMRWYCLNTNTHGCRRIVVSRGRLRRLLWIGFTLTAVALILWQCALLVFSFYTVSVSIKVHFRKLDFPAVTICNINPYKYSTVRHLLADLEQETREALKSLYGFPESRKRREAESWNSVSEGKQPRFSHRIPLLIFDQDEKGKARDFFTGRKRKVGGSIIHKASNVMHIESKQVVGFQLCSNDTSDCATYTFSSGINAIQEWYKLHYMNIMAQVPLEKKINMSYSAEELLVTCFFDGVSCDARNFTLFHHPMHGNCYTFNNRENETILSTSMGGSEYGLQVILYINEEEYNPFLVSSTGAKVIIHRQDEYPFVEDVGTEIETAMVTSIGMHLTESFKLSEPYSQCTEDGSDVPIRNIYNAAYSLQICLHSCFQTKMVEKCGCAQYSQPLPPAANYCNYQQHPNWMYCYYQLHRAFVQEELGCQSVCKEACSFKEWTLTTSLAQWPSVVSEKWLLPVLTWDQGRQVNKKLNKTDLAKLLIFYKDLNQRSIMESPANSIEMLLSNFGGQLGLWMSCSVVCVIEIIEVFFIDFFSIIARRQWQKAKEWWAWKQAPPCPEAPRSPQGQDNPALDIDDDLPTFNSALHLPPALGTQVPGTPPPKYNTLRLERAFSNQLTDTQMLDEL
Assay: Short circuit current (ISC) measurements in Human Bronchial Epithelial cells, inhibition of amiloride-sensitive ISC
Format: cell-based
Details: inhibition of the amiloride-sensitive ISC; Human Bronchial Epithelial cells (HBECs) at air-liquid interface; compound added to apical chamber; read-out: IC50
Protocol: Compounds of formula (I) and their pharmaceutically acceptable salts, hereinafter referred to alternatively as “agents of the invention”, are useful as pharmaceuticals. […] Test compounds were prepared as a 10 mM stock solution in DMSO (95%). […] At the completion of the concentration-response experiment, amiloride (10 μM) was added into the apical chamber to enable the total amiloride-sensitive current to be measured. […] Results are expressed as the mean % inhibition of the amiloride-sensitive ISC. […]
Note the log scale: values are log10 of IC50 expressed in µM.

query: Query (compound): Nc1nc(N)c(C(=O)/N=C2\NC[C@H](CCCNC(=O)NCc3ccccc3)N2)nc1Cl ; field requested: log10 of IC50
result: -1.74

query: Query (compound): Nc1nc(N)c(C(=O)/N=C2\NCC3(CCN(C(=O)CCc4nc(-c5ccc(Cl)cc5)no4)CC3)N2)nc1Cl ; field requested: log10 of IC50
result: -2.22

query: Query (compound): Nc1nc(N)c(C(=O)/N=C2\NC[C@H](CCCCNS(=O)(=O)Cc3ccccc3)N2)nc1Cl ; field requested: log10 of IC50
result: -1.51

query: Query (compound): COc1cc(OC)nc(COc2ccc(C(=O)N3CCC4(CC3)CN/C(=N\C(=O)c3nc(Cl)c(N)nc3N)N4)cc2)n1 ; field requested: log10 of IC50
result: -0.46

query: Query (compound): Nc1nc(N)c(C(=O)/N=C2\NC[C@H](CCCNC(=O)Cc3ccccc3)N2)nc1Cl ; field requested: log10 of IC50
result: -1.02

query: Query (compound): Nc1nc(N)c(C(=O)/N=C2\NCC3(CCN(C(=O)CCc4ccc(OCc5ccncc5)cc4)CC3)N2)nc1Cl ; field requested: log10 of IC50
result: -1.13
